Cited source: patent US20090022728A1

target: T1, biotinylated Aβ1-40 peptide (biotinylated (N-biotinylated in Example 7)); assay: SPR, Fab over Aβ1-40 on SA chip; kon may be assumed = 9TL (footnote 2)
T1 construct: captured on streptavidin (SA) chip; also called Biotinylated Aβ peptide 1-40; Aβ1-40 on SA chip
T1 sequence (peptide, as listed by the source): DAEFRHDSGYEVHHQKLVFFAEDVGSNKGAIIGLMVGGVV
reported-metric: kon

Worked cases, answers included:
binder	kon
9TL variant M54 Fab (Fab, V domains shown, Fab; human IgG2 CH1 and kappa CL) VH: QVQLVQSGAEVKKPGASVKVSCKASGYYTEAYYIHWVRQAPGQGLEWMGRIDPATGNTKYAPRLQDRVTMTRDTSTSTVYMELSSLRSEDTAVYYCASLYSLPVSWGQGTTVTVSS VL: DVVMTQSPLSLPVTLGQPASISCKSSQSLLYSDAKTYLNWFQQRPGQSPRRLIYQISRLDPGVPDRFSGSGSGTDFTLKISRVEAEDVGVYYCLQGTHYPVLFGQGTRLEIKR	318000 M⁻¹ s⁻¹
9TL variant M31 Fab (Fab, V domains shown, Fab; human IgG2 CH1 and kappa CL) VH: QVQLVQSGAEVKKPGASVKVSCKASGYYTEAYYIHWVRQAPGQGLEWMGRIDPATGNTKYAPRLQDRVTMTRDTSTSTVYMELSSLRSEDTAVYYCASVYSLPVYWGQGTTVTVSS VL: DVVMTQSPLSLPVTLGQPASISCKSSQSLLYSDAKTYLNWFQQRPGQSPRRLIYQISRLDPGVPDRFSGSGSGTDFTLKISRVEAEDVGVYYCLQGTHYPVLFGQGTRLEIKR	318000 M⁻¹ s⁻¹

# next binder below
// query kon for 9TL variant M18 Fab (Fab, V domains shown, Fab; human IgG2 CH1 and kappa CL) VH: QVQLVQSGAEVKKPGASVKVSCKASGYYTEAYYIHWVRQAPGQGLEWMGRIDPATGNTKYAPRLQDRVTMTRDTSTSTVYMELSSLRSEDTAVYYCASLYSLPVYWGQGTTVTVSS VL: DVVMTQSPLSLPVTLGQPASISCKSSQSLLYSDAKTYLNWFQQRPGQSPRRLIYQISRLDPGVPDRFSGSGSGTDFTLKISRVEAEDVGVYYCLQGTHQPVLFGQGTRLEIKR ?
// result 318000 M⁻¹ s⁻¹
